Attribution: patent US20200024330A1

Target: HIV-1 JRCSF envelope glycoprotein (Env) (HIV-1) (UniProt P20871)
Experiment: cell-based or functional assay
Reported Endpoint: IC50 neutralization (ng/mL)
Give bare numbers, in ng/mL.

- Binder: "PGT-123 (antibody, V domains shown) VH: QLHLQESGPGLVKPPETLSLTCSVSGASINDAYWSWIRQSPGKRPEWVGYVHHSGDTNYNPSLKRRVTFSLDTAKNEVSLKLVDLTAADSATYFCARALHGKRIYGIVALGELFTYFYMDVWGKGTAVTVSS VL: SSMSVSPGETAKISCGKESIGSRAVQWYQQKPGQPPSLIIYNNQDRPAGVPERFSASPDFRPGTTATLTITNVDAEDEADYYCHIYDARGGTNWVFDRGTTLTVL"
  IC50 neutralization (ng/mL): 42.3
- Binder: "PGT-130 (antibody, V domains shown) VH: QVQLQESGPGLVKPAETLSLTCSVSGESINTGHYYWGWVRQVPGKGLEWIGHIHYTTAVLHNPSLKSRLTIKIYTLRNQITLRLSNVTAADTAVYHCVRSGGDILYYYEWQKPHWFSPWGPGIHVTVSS VL: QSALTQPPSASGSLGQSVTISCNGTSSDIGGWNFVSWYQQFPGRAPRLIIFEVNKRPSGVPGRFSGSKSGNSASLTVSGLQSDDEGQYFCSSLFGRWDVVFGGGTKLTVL"
  IC50 neutralization (ng/mL): 8.9

Now consider the entry below.
For record PGT-125 (antibody, V domains shown) VH: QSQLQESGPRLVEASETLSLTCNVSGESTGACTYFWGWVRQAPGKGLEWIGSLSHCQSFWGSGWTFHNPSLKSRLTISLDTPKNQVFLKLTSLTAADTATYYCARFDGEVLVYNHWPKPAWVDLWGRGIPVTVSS VL: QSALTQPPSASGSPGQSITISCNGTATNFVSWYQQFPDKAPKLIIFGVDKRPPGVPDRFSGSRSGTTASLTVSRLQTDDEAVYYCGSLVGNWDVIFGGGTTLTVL the listed IC50 neutralization is 6
